Tested on: c-Myc
Assay: c-Myc immunofluorescence assay
Type: cell-based, human
Settings: A549 cells, 24 hours treatment, anti-c-Myc immunofluorescence
Method: A549 human non-small cell lung carcinoma cells were treated for 24 hours with increasing compound concentration, cells were fixed and stained with a nuclei stain (DAPI) and anti-c-Myc fluorescent antibody. The c-Myc signal was quantified by image analysis, and data was exported and analyzed using TIBCO Spotfire® (TIBCO Corporation). […] Cell images were taken with Operetta (Perkin Elmer, USA), a wide-field fluorescence microscope at 20× magnification. […]

COMPOUND: CCN(CC)CCCNC(=O)c1ccc2c(c1)sc1nc(-c3cc(C)ccn3)cn12
Myc Efficacy (−LogEC50): + (+ >3 and <5)
//
COMPOUND: CCN(CC)CCCNC(=O)c1ccc2c(c1)sc1nc(-c3ccccc3C)cn12
Myc Efficacy (−LogEC50): ++ (++ ≥5 and <6)
//
COMPOUND: CNC(=O)c1ccc(-c2cn3c(n2)sc2cc(NC(=O)CCCN4CCCCC4)ccc23)cc1
Myc Efficacy (−LogEC50): ++ (++ ≥5 and <6)
//
COMPOUND: O=C(NCCCN1CCC(F)CC1)c1ccc2c(c1)sc1nc(-c3ccc(C4CC(O)CN4)cc3F)cn12 (centres unmarked)
Myc Efficacy (−LogEC50): +++ (+++ ≥6)
//
COMPOUND: CNC(=O)c1ccc(-c2cn3c(n2)sc2cc(C(=O)NC[C@H]4CCNC[C@@H]4O)ccc23)cc1
Myc Efficacy (−LogEC50): + (+ >3 and <5)
//
COMPOUND: CNC(=O)c1ccc(-c2cn3c(n2)sc2cc(C(=O)NCC(=O)NCC(F)(F)F)ccc23)cc1
Myc Efficacy (−LogEC50): − (− ≤3)
//
COMPOUND: CNC(=O)c1ccc(-c2cn3c(n2)sc2cc(C(=O)NC[C@H](O)c4ccccc4)ccc23)cc1
Myc Efficacy (−LogEC50): − (− ≤3)
//
COMPOUND: CCN(CC)CCCNC(=O)c1ccc2c(c1)sc1nc(-c3ccncc3)cn12
Myc Efficacy (−LogEC50): +++ (+++ ≥6)
